Listed below: IC50 values for each entry.
# Test system: H3255 cells
# Run description: Cell viability assay (CellTiter-Glo)
# Assay type: cell-based
# Experimental parameters: Homo sapiens, NCI-H3255, 72 h of treatment
Use nM as the unit, but write only the number.

1) C=CC(=O)Nc1cc(Nc2nccc(-c3cn(C)c4ccccc34)n2)c(OC)cc1N(C)CCN(C)C [Osimertinib, osimertinib, reference compound] : 27.8

Shifting focus to the compound that follows.
## Task Could you tell me which IC50 is on file for `C=CC(=O)Nc1cc(C(=O)Nc2nc3cccc(C)c3n2[C@@H]2CCCCN(C(=O)C=C)C2)cs1` ?
## Result 471
